Origin of the recorded values: patent EP0367747A2

Reported EC50 values are given for each entry in this list.
- Test system: visna virus
- assay: Inhibition of visna virus in vitro (plaque reduction assay / 96 well plate assay) in SCP cells
- Format: cell-based
- experimental.parameters: Visna-maedi virus; inhibition of visna virus; read-out: EC₅₀
Your answer is read as µM, so omit the unit and give the number.

Known EC50 results, listed for orientation:
compound="CCCCN1CC(OC(=O)CCC)C(OC(=O)CCC)C1COC(=O)CCC (stereo not drawn)" target_under_test="visna virus" quantity_kind=EC50 reported=1000
compound="CN1CC(O)C(O)C1CO (stereo not drawn)" target_under_test="visna virus" quantity_kind=EC50 reported=100
compound=CCCC(=O)OC[C@@H]1NC[C@H](OC(=O)CCC)[C@H]1OC(=O)CCC target_under_test="visna virus" quantity_kind=EC50 reported=1

Prompt: Given the entry CCCCCCN1CC(O)C(O)C1CO (stereo not drawn) , report its measured EC50.
Completion: 125

Prompt: Return reported EC50; argument: `CC(=O)OC[C@H]1[C@H](OC(C)=O)[C@@H](OC(C)=O)CN1C(=O)Cc1ccccc1`
Completion: 1000

Prompt: Dear colleague, I am looking for the recorded EC50 of the following compound: `CC(=O)OC[C@H]1[C@H](OC(C)=O)[C@@H](OC(C)=O)CN1C(=O)OCc1ccccc1`
Completion: 1000
